System: TO-N3-2 (biotin conjugate)
assay-details: pull-down binding Z-score (relative to library population); higher = stronger binding
assay-conditions: RNA library: Library-2
Measured pull-down binding Z-score of individual entries
Respond with the number and no other words.

Use these answered entries as a reference point.
| entry-sequence | number |
| --- | --- |
| CCUUCACUGUAGAAAAAGG [SHAPE_invivo_SARS-CoV-2_Motif_423] | -0.52 |
| AUAAGAAAGACAAUUCUUAU [DMSMaPseq_invitro_SARS-CoV-2_Motif_114] | -1.45 |
| ACAUGCCAAUUUAGAUUCUUGCAAAAGAGUCUUGAACGUGGUGUGU | -1.62 |
| GAGAUGUGAUCCUGCCACAUCUC [hsa-mir-1304] | -0.363 |
| CUGUUCCACCAUUGAAGAGCUCAG [IAV_invivo_PB1_2_Motif_38+IAV_invivo_PB1_2_Motif_38] | 0.457 |

input: Determine from records and report pull-down binding Z-score for GUUGAAAAAUAUCUAUGUAUUAGUAAAC [hsa-mir-649]
output: -0.74

input: Determine from records and report pull-down binding Z-score for CCAUGCAACAUUUGG [hsa-mir-1302-4]
output: -0.696

input: Determine from records and report pull-down binding Z-score for ACCAUUUAAUGAUGGU [DMSMaPseq_invitro_SARS-CoV-2_Motif_383]
output: -1.7

input: Determine from records and report pull-down binding Z-score for GGGGCUGAGGCUGAGUCUUCCUCCC [hsa-mir-6756]
output: 1.53

input: Determine from records and report pull-down binding Z-score for GUGGAGGUAGGCGAGAGUAAUAUAAUUUCUCCAGGAGAACAUCUGAGAGGGGAAGUUGCUUUCCUGCCCUGGCCCUUUCAC [hsa-mir-6076]
output: 1.37

* * *

Test system: G-clamp-N3 (biotin conjugate)
assay-details: pull-down binding Z-score (relative to library population); higher = stronger binding
assay-conditions: RNA library: Library-1 (pre-miRNA loops + repeats)
Rule: pull-down binding Z-score under -0.4 gives not fulfilled, otherwise fulfilled.

| entry-sequence | label-class |
| --- | --- |
| CCUUUCCCCUCAGACCAAGG [hsa-mir-3131] | fulfilled |
| AGAAAUCAAGCUAUUUGCUAAAAGUUCU [hsa-mir-6844] | fulfilled |

input: Is it the case that GCUGUGUUGAAUGAUUGGUGAGUUUGUUUGCUCAUUGAUUGAAUCACUGC [hsa-mir-3678] has pull-down binding Z-score reaching or exceeding -0.4?
output: fulfilled

input: Is it the case that CAUAUGUAUGUAUGUAUGUCUGUUACACAUAUG [hsa-mir-3688-1] has pull-down binding Z-score reaching or exceeding -0.4?
output: not fulfilled

input: Is it the case that GUGUCCUGAAAUUCACAGGACUG [hsa-mir-4700] has pull-down binding Z-score reaching or exceeding -0.4?
output: fulfilled

input: Is it the case that CUCUGCUGUGUAAAUAGUUCUGAGUAGU [hsa-mir-454] has pull-down binding Z-score reaching or exceeding -0.4?
output: not fulfilled

input: Is it the case that AUUGCAUGUUCUGGUGGUACCCAUGCAAU [hsa-mir-33a] has pull-down binding Z-score reaching or exceeding -0.4?
output: fulfilled

input: Is it the case that GUUGGGGAACAGGUGGUUAGCACUUCAU [hsa-mir-5196] has pull-down binding Z-score reaching or exceeding -0.4?
output: fulfilled

input: Is it the case that AGUUUCUGGAAUGUCAGAACUUCCAGAAACU [hsa-mir-3199-2] has pull-down binding Z-score reaching or exceeding -0.4?
output: fulfilled

input: Is it the case that AGUCCGUGCAUCCGCCCUUCGAUGCUUGGGUU [hsa-mir-3182] has pull-down binding Z-score reaching or exceeding -0.4?
output: not fulfilled

* * *

Tested on: TO-N3-2 (biotin conjugate)
assay-details: pull-down binding Z-score (relative to library population); higher = stronger binding
assay-conditions: RNA library: Library-2
Measured pull-down binding Z-score of individual entries
Respond with the number and no other words.

Use these answered entries as a reference point.
| entry-sequence | pull-down binding Z-score |
| --- | --- |
| UCAGGCUUUAAUGUUUGAAGUAAUGUCAGU [hsa-mir-6874] | 0.228 |
| GUUAACUGGUUAUAAGAAACCUGCUUCAAGAGAGCUUAAAGUUAC | -0.112 |
| AGCUUUAUGUAUUCUGAAGUUAUUGAAAAUAAGAGCU [hsa-mir-3140] | -0.911 |

input: Determine from records and report pull-down binding Z-score for GCAGCCUUGC [hsa-mir-4298]
output: 0.0238

input: Determine from records and report pull-down binding Z-score for UGCUGAGGCUUCUAAGAAGCCUCGGCA
output: -1.28

input: Determine from records and report pull-down binding Z-score for GUGCACUUCAUUUACGAUGUAG [hsa-mir-1193]
output: 0.478

* * *

Tested on: G-clamp-N3 (biotin conjugate)
assay-details: pull-down binding Z-score (relative to library population); higher = stronger binding
assay-conditions: RNA library: Library-1 (pre-miRNA loops + repeats)
Measured pull-down binding Z-score of individual entries
Respond with the number and no other words.

Use these answered entries as a reference point.
| entry-sequence | test-readout | number |
| --- | --- | --- |
| GUGGGUUGUGAGGACUGAGGCCAGACCCAC [hsa-mir-181d] | pull-down binding Z-score | 1.5 |
| UCUGCUUUGAUGAAAUAAAGCAGA [hsa-mir-4773-2] | pull-down binding Z-score | -0.541 |
| CGCGCGUCGAGUCAGCCGUGUG [hsa-mir-933] | pull-down binding Z-score | 1.31 |

input: Determine from records and report pull-down binding Z-score for CACACGCUUUAUUUGUGCCGUUUG [hsa-mir-758]
output: -0.691

input: Determine from records and report pull-down binding Z-score for CACAGAGUAAGCAUCAAUAGCAUUGGCAAGUUGAACUGAGCUGUC [hsa-mir-6895]
output: -0.438

input: Determine from records and report pull-down binding Z-score for GGAGCAGACAGACCCAACCUCAUGCUCC [hsa-mir-6763]
output: -0.993

input: Determine from records and report pull-down binding Z-score for CCAUUUACUUGAACCUUUAGGAGUGA [hsa-mir-489]
output: -0.68

* * *

System: TO-3-N3-2 (biotin conjugate)
assay-details: pull-down binding Z-score (relative to library population); higher = stronger binding
assay-conditions: RNA library: Library-2
Measured pull-down binding Z-score of individual entries
Respond with the number and no other words.

Use these answered entries as a reference point.
| entry-sequence | measured-target | pull-down binding Z-score |
| --- | --- | --- |
| UCAUCAGGAGAUGCCACAACUGCUUAUGCUAAUAGUGUUUUUAACAUUUGUCAAGCUGUCACGGCCAAUGUUAAUGCACUUUUAUCUACUGAUGG [DMSMaPseq_invitro_SARS-CoV-2_Multi_45_ComplexLevel_1] | TO-3-N3-2 (biotin conjugate) | -0.46 |
| UCUCUCUCAUUUUGUUAACUUAGACAACCUGAGAGCUAAUAACACUAAAGGUUCAUUGCCUAUUAAUGUUAUAGUUUUUGAUGGUAAAUCAAAAUGUGAAGA [DMSMaPseq_invitro_SARS-CoV-2_Motif_146] | TO-3-N3-2 (biotin conjugate) | -0.388 |
| CGGAGCCUCGCAGGGUCGGGCUCGGGCUCCCUAACCGUCUCCGCUUCUUC [hsa-mir-6084] | TO-3-N3-2 (biotin conjugate) | 0.558 |
| GACUCAUUCAAGGAGGAGUU [SHAPE_invivo_SARS-CoV-2_Motif_469] | TO-3-N3-2 (biotin conjugate) | -0.149 |

input: Determine from records and report pull-down binding Z-score for UUUGCCAUUAUAAUGGCAAA [hsa-mir-548ae-1]
output: -0.855

input: Determine from records and report pull-down binding Z-score for CCACUGGGAAUGCUCCCUGAGGACGUUAUAUGAGUG [hsa-mir-4319]
output: 0.399

input: Determine from records and report pull-down binding Z-score for AAACUCAAACCCGUCCUUGAUUGGCUUGAAGAGAAGUUUAAGGAAGGUGUAGAGUUU
output: 0.119

* * *

System: TO-N3-2 (biotin conjugate)
assay-details: pull-down binding Z-score (relative to library population); higher = stronger binding
assay-conditions: RNA library: Library-2
Measured pull-down binding Z-score of individual entries
Respond with the number and no other words.

Use these answered entries as a reference point.
| entry-sequence | pull-down binding Z-score |
| --- | --- |
| UGGUAUUCUUGCUA | -0.632 |
| CUCUAGACUCUAUUAUAGUUUCCUGAG [hsa-mir-558] | -0.545 |
| AUAUAAAAUGCAAUUA [hsa-mir-3945] | -0.448 |
| CCUUCGCUUUAUUUGUGACGAAUC [hsa-mir-154] | -0.185 |
| CUUUUUGCCACCUGAGCACAGUCAGCAGUCAGCAUAAAA [hsa-mir-4275] | 1.15 |
| AGUCCCUGUUGCUAUUCAUGCAGAUCAACUUACUCCUACUUGGCGUGUUUAUUCUACAGGUUCUAAUGUUUUUCAAACACGUGCAGGCUGUUUAAUAGGGGCU | -0.608 |
| UCCUUUGACAUGAGUAAUGAAGGAUCUUAUUUCUUCGGAGACAAUGCAGAGGA [IAV_invivo_NP_5_Motif_26+IAV_invivo_NP_5_Motif_26] | -0.0358 |
| UUCAUAGGGAAGCCUUUCCAUGAA [hsa-mir-4738] | -0.574 |
| UGGGUUAUCUUCAACCUA | -0.937 |
| UGUUUAUGUUAUUUAUGGUUAAACA [hsa-mir-376c] | -0.967 |

Read the next record carefully.
input: Determine from records and report pull-down binding Z-score for UCCAGCUGUGUGAUAUUCUGCUG [hsa-mir-19b-1]
output: 0.384
